The reported measurements were obtained from the supplement of paper PMC10567573.

Assignment: determine reported protein stability index for the given variants.
B1: SPATS1 (parent)
chain: YPEQSKGFHKAGSMLPPVNFSIVP

Variants of: B1
Assay: protein stability index of a GFP-peptide fusion (GPS, HEK-293T) (PSI 1-6); higher = more stable;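 note: lentivirally expressed fusions sorted by FACS into six bins by GFP to DsRed ratio, PSI derived from sequencing read proportions per bin multiplied by bin number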
Settings: c terminus: a fixed tail appended
Respond with the number and no other words.

Any idea what its protein stability index is? The variant is YPEQSKGCHKAGSMLPPVNFSIVP
2.78

What do you get for YPVQSKGFHKAGSMLPPVNFSIVP ?
1.76

What do you get for YPEQSKGFHKAGSMLPPVNFSICP ?
1.8

What do you get for YPEQSKGFHKAGSMLPPVAFSIVP ?
2.17

What do you get for YPEQSWGFHKAGSMLPPVNFSIVP ?
1.9

What do you get for YPEQSKPFHKAGSMLPPVNFSIVP ?
1.71

What do you get for YFEQSKGFHKAGSMLPPVNFSIVP ?
1.77

What do you get for YPEQYKGFHKAGSMLPPVNFSIVP ?
2.1

What do you get for YPEKSKGFHKAGSMLPPVNFSIVP ?
1.77

What do you get for YPEQSKGFHKAGSMLPPVNFKIVP ?
2.15

What do you get for TPEQSKGFHKAGSMLPPVNFSIVP ?
3.22
